assay: in vitro; details: chlorocebus sabaeus
readout: CC50

{"columns": ["query.smiles", "value.measured"],
 "data": [
  ["Cc1scnc1COc1cc(Cl)cc(-n2cc(-c3ccc(=O)[nH]c3)c(=O)n(-c3cccnc3)c2=O)c1", "> 100 µM"]
]}

Please indicate CC50 recorded for "O=c1[nH]cccc1-c1cn(-c2cc(Cl)cc(OCc3nc4ccccc4n3C(F)F)c2)c(=O)n(-c2cccnc2)c1=O"
> 100 µM

Please report the measured CC50 for "O=c1[nH]cccc1-c1cn(-c2cc(Cl)cc(OCc3nccn3C(F)F)c2)c(=O)n(-c2cccnc2)c1=O"
> 100 µM

----------
assay: Pharmacokinetics after single IV and PO administration; assay type: in vivo, Male Sprague Dawley rats; conditions: male, Sprague-Dawley, rat; plasma, IV 0.25 mg/kg
readout: clearance (mL/min/kg)
Return type: number; implicit unit mL/min/kg.

Write down clearance measured for item O=c1[nH]cccc1-c1cn(-c2cc(Cl)cc(OCCC(F)(F)F)c2)c(=O)n(-c2cccnc2)c1=O [Compound 36]
2.49

----------
Each entry below lists one item and its recorded remaining at 5 min, 3 µM value.
test: Human liver microsome stability assay; settings: human, microsomes
Give the value in % but do not write % after it.

{"columns": ["compound", "value.measured"],
 "data": [
  ["O=c1[nH]cccc1-c1cn(-c2cc(Cl)cc(OCc3ncsc3C(F)(F)F)c2)c(=O)n(-c2cccnc2)c1=O [Compound 45]", 84.6]
]}

Please list remaining at 5 min, 3 µM recorded for the compound O=c1[nH]cccc1-c1cn(-c2cc(Cl)cc(OCc3nccn3C(F)F)c2)c(=O)n(-c2cccnc2)c1=O [Compound 41]
94.5

Fill in remaining at 5 min, 3 µM for record O=c1[nH]cccc1-c1cn(-c2cc(Cl)cc(OCCC(F)(F)F)c2)c(=O)n(-c2cccnc2)c1=O [Compound 36]
98.2

Give a short answer stating reported remaining at 5 min, 3 µM for O=c1[nH]cccc1-c1cn(-c2cc(Cl)cc(OCc3ccccc3Cl)c2)c(=O)n(-c2cccnc2)c1=O [Compound 43] .
91.6

----------
experiment: in vitro; conditions: CD-1, mouse, microsomes
readout: half-life at 3 µM (min)
Give just the numeric value; min need not be written.

Name the recorded half-life at 3 µM of the item "Cn1cc(-c2cc(-c3cc(Cl)c(F)c(OCc4ccccc4Cl)c3)c(=O)n(-c3cccnc3)c2)c(=O)[nH]c1=O" in your answer.
2.4

----------
experiment: in vitro; conditions: human, microsomes
readout: remaining at 10 min, 3 µM (%)
Kindly answer with a numeric value in %, unit omitted.

State its remaining at 10 min, 3 µM: "Cn1cc(-c2cc(-c3cc(Cl)c(F)c(OCc4ccccc4Cl)c3)c(=O)n(-c3cccnc3)c2)c(=O)[nH]c1=O"
22.7

----------
assay: Oral dose escalation pharmacokinetics (10 and 100 mg/kg PO); format: in vivo, rat; settings: rat plasma, PO 100 mg/kg, mean ± SD, n = 3
readout: Tmax (h)
# value in h; strip the unit string

Give the reported Tmax for this compound. "O=c1[nH]cccc1-c1cn(-c2cc(Cl)cc(OCCC(F)(F)F)c2)c(=O)n(-c2cccnc2)c1=O"
2.33

----------
experiment: Pharmacokinetics after single IV and PO administration; format: in vivo, Male Sprague Dawley rats; details: male, Sprague-Dawley, rat; plasma, PO 0.5 mg/kg
readout: Cmax
// return the numeric value with its unit appended

Determine from records and report Cmax for "O=c1[nH]cccc1-c1cn(-c2cc(Cl)cc(OCCC(F)(F)F)c2)c(=O)n(-c2cccnc2)c1=O"
285 ng/mL

----------
test: Oral dose escalation pharmacokinetics (10 and 100 mg/kg PO); type: in vivo, rat; details: rat plasma, PO 10 mg/kg, mean ± SD, n = 3
readout: Tmax (h)
Your answer should be a plain number; it is taken to be in h.

Answer with the recorded Tmax of O=c1[nH]cccc1-c1cn(-c2cc(Cl)cc(OCCC(F)(F)F)c2)c(=O)n(-c2cccnc2)c1=O [Compound 36] only.
1.67

----------
experiment: Oral dose escalation pharmacokinetics (10 and 100 mg/kg PO); type: in vivo, rat; conditions: rat plasma, PO 10 mg/kg, mean ± SD, n = 3
readout: Cmax

Return value of Cmax for input O=c1[nH]cccc1-c1cn(-c2cc(Cl)cc(OCCC(F)(F)F)c2)c(=O)n(-c2cccnc2)c1=O [Compound 36] , no commentary.
2610 nM

----------
test: in vitro; conditions: CD-1, mouse, microsomes
readout: remaining at 5 min, 3 µM (%)
// note: answer is a bare numeric in %

Provide only the value of recorded remaining at 5 min, 3 µM for "Cn1cc(-c2cc(-c3cc(Cl)c(F)c(OCc4ccccc4Cl)c3)c(=O)n(-c3cccnc3)c2)c(=O)[nH]c1=O"
9.41

----------
molecular target: SARS-CoV-2 Mpro (3CLpro) (Severe acute respiratory syndrome coronavirus 2); assay: SARS-CoV-2 recombinant protease enzymatic assay (FRET); details: recombinant Mpro, FRET peptide substrate
readout: IC50 (µM)
Please give a number only; it is taken to be in µM.

State recorded IC50 with SARS-CoV-2 Mpro (3CLpro) (Severe acute respiratory syndrome coronavirus 2), entry "O=c1[nH]cccc1-c1cn(-c2cc(Cl)cc(OCc3nc4ccccc4n3C(F)F)c2)c(=O)n(-c2cccnc2)c1=O" , no comment.
0.021

Please tell me the measured IC50 for "O=c1[nH]cccc1-c1cn(-c2cc(Cl)cc(OCc3ccccc3Cl)c2)c(=O)n(-c2cccnc2)c1=O" ; system: SARS-CoV-2 Mpro (3CLpro) (Severe acute respiratory syndrome coronavirus 2).
0.0086

// fetch IC50; item: "Cn1cc(COc2cc(Cl)cc(-n3cc(-c4ccc[nH]c4=O)c(=O)n(-c4cccnc4)c3=O)c2)c(C(F)(F)F)n1" ; system: SARS-CoV-2 Mpro (3CLpro) (Severe acute respiratory syndrome coronavirus 2)
0.0056

----------
test: Oral dose escalation pharmacokinetics (10 and 100 mg/kg PO); type: in vivo, rat; settings: rat plasma, PO 10 mg/kg, mean ± SD, n = 3
readout: half-life (h)
Please respond with the number in h and leave the unit unwritten.

Answer with the recorded half-life of "O=c1[nH]cccc1-c1cn(-c2cc(Cl)cc(OCCC(F)(F)F)c2)c(=O)n(-c2cccnc2)c1=O" only.
2.68

----------
Reported pEC50 values for a set of compounds
test system: SARS-CoV-2-Nluc reporter virus; assay: microbe, parasite or virus in culture; type: cell-based; settings: Severe acute respiratory syndrome coronavirus 2; VeroE6/TMPRSS2 cells; parentheses denote 95% confidence intervals
Reminder that pEC50 is minus the log10 of a molar concentration.

Worked cases, pEC50 given:
{"columns": ["compound", "readout", "value.measured"],
 "data": [
  ["Cc1nc(C)c(COc2cc(Cl)cc(-n3cc(-c4ccc[nH]c4=O)c(=O)n(-c4cccnc4)c3=O)c2)s1", "pEC50", 4.99],
  ["O=c1[nH]cccc1-c1cn(-c2cc(Cl)cc(OCc3ccccc3Cl)c2)c(=O)n(-c2cccnc2)c1=O", "pEC50", 6.89],
  ["Cn1cc(COc2cc(Cl)cc(-n3cc(-c4ccc[nH]c4=O)c(=O)n(-c4cccnc4)c3=O)c2)c(C(F)(F)F)n1", "pEC50", 5.48],
  ["Cc1scnc1COc1cc(Cl)cc(-n2cc(-c3ccc[nH]c3=O)c(=O)n(-c3cccnc3)c2=O)c1", "pEC50", 5.30],
  ["O=c1[nH]cccc1-c1cn(-c2cc(Cl)cc(OCc3nccn3C(F)F)c2)c(=O)n(-c2cccnc2)c1=O", "pEC50", 5.17]
]}

Report pEC50 for "O=c1[nH]cccc1-c1cn(-c2cc(Cl)cc(Cl)c2)c(=O)n(-c2cccnc2)c1=O"
6.30

In one line, give reported pEC50 of the entry "O=c1[nH]cccc1-c1cn(-c2cc(Cl)cc(OCc3ncsc3C(F)(F)F)c2)c(=O)n(-c2cccnc2)c1=O" .
6.09

Annotate the compound Cn1cnc(Cn2c(=O)[nH]/c(=N\c3cc4cn(C)nc4cc3Cl)n(Cc3cc(F)c(F)cc3F)c2=O)n1 [Compound S-217622, ensitrelvir, reference compound] with its measured pEC50.
6.64

Specify measured pEC50 for "O=c1[nH]cccc1-c1cn(-c2cc(Cl)cc(OCCC(F)(F)F)c2)c(=O)n(-c2cccnc2)c1=O" .
5.87

----------
assay: in vitro; conditions: human, microsomes
readout: remaining at 5 min, 3 µM (%)
Field: numeric (%). Do not append units.

Give the reported remaining at 5 min, 3 µM for this compound. Cn1cc(-c2cc(-c3cc(Cl)c(F)c(OCc4ccccc4Cl)c3)c(=O)n(-c3cccnc3)c2)c(=O)[nH]c1=O [Compound 4]
46.1

----------
Experiment: Oral dose escalation pharmacokinetics (10 and 100 mg/kg PO)
Type: in vivo, rat
Settings: rat plasma, PO 100 mg/kg, mean ± SD, n = 3
Experimental: To this end, 36 was studied in male Sprague–Dawley rats following a single intravenous dose at 0.25 mg/kg and an oral dose at 0.5 mg/kg (SI, Table S18). Table S19. Summary of Pharmacokinetic Parameters (nmol/mL) for Compound 36 in Rat Plasma after a Single Oral Dose of 36 at 10 mg/kg or 100 mg/kg Dose Tmax Cmax Tlast Clast AUCinf t1/2 (mg/kg) (h) (nmol/mL) (h) (nmol/mL) (h*nmol/mL) (h) Results are shown as averages and standard deviations (n = 3). Figure S18. […]
readout: half-life (h)
Just the number in h, nothing appended.

Annotate the molecule O=c1[nH]cccc1-c1cn(-c2cc(Cl)cc(OCCC(F)(F)F)c2)c(=O)n(-c2cccnc2)c1=O [Compound 36] with its measured half-life.
3.73
